FYI, the data here is from PubChem BioAssay (NCI).

# Tested on: HOP-62 NSCLC
# EXPERIMENT: NCI-60 one-dose screen, 48 h
# RUN_PARAMETERS: 10 µM unless noted
The panel holds about 83,000 compounds, 20% with a hit somewhere; the sample as a whole holds those more often. The source made the active and inactive calls. The calls were made as follows: active = growth percent below 10; inactive = the rest.
Possible outcomes: YES (active), NO (inactive)

• Oc1c(N=Nc2nn[nH]n2)ccc2ccccc12 = NO
• CCOc1nc(-c2ccco2)n2nc(-c3ccco3)cc2n1 = NO
• COc1cc(OC)c2c(c1Cl)O[C@]1(C2=O)C(OCc2ccccc2)=CC(=O)C[C@H]1C = YES
• CC1=C([Se]CC(OC(=O)[C@@H](CSSC(C)(C)C)NC(=O)C(C)(C)C)C(=O)NCCCCCC(=O)OCc2ccccc2)C(=O)c2ccccc2C1=O (stereo partly specified) = YES
• c1ccc2nc(Cn3c[n+](Cc4ccc5ccccc5n4)c4ccccc43)ccc2c1 = NO
• COc1cc(/C=N/NC(=O)c2ccc(C(F)(F)F)nc2Nc2ccc(Cl)cc2C)ccc1O = YES
• COCCOCCOCCOCCOc1ccc2c(c1)C(=O)c1nc3ncccc3c(=O)n1-2 = YES
• COc1cc(-c2n[nH]nc2-c2ccccn2)cc(OC)c1OC = NO
• CCOC(=O)c1cc2oc(/C=C/c3cc(=O)c4cc(Cl)ccc4o3)cc2[nH]1 = NO
• FC(F)(F)c1ccc(-c2cnc(-c3nn[nH]n3)nc2NC2CCCCCC2)cc1 = NO
• CC(C)C[C@H](NC(=O)/C=C/Cn1ccc2ccccc2c1=O)B(O)O = NO
• O=C(Nc1ccccc1)c1cc(-n2cnc([N+](=O)[O-])c2)cc(-n2cnc([N+](=O)[O-])c2)n1 = NO
• CCc1ccc(-c2nc(SCC(=O)NC3CCCCC3)n[nH]2)cc1 = NO
• N#Cc1c(-c2ccccc2)cc(-c2ccccc2)n(CCCCC(=O)O)c1=O = NO
• C[C@@H]1CN(c2nc3c(cc2F)c(=O)c(C(=O)O)cn3C(C)(C)C)C[C@H](C)N1 = NO
• COc1cc(/C=C/C(=O)C(C(=O)/C=C/c2ccc(OC(=O)CCNC34CC5CC(CC(C5)C3)C4)c(OC)c2)C(=O)CCNC23CC4CC(CC(C4)C2)C3)ccc1OC(=O)CCNC12CC3CC(CC(C3)C1)C2 (stereo unspecified) = NO
• COc1ccc2c(c1)[n+](=O)c(C(=O)/C=C/c1cc(OC)c(OC)c(OC)c1)c(C)n2[O-] = NO
• COc1cccc(-c2nc3cc(NC(=O)c4ccc(Cl)c(C#N)c4)ccc3o2)c1 = NO
• COc1cc2c(cc1OC)C(=O)/C(=C/c1cccc(OCC(=O)c3ccccc3)c1)C2 = NO
• Cc1ccccc1NC(=O)NC(CC(N)=O)c1ccc2c(c1)nc(-c1cccc(Oc3ccc(C(C)(C)C)cc3)c1)n2CCCN1CCCCC1C (stereo unspecified) = NO
• CC(NNC(=S)N1CCCCCC1)c1ccc2ccccc2n1 (stereo unspecified) = NO
• COCCCNS(=O)(=O)c1ncnc2nc[nH]c12 = NO
• Cc1cc(C)c(C(=O)c2cccs2)c(C)c1 = NO
• CCOC(=O)OCC(=O)[C@@]1(O)CC[C@H]2[C@@H]3CCC4=CC(=O)CC[C@]4(C)[C@H]3[C@@H](O)C[C@@]21C = NO
• NC(=N\N=C/Cc1ccccc1)/C(N)=N\N=C\Cc1ccccc1 = NO
• O=C1C(=O)/C(=C/c2ccccc2)CCCCCC/C1=C/c1ccccc1 = NO
• O=C(/C=C(\Nc1ccccc1)c1ccccc1)c1cn(-c2ccc([N+](=O)[O-])cc2)nn1 = NO
• Cc1ccc(-c2cc(-c3ccccc3)n(-c3ccccc3)n2)cc1 = YES
• N#CSCC1CC(O)(c2ccccc2)C(c2ccccc2)C(c2ccc(Cl)cc2)O1 (stereo unspecified) = YES
• CCSc1ncc(Br)c(Sc2nc(N)nc3nc[nH]c23)n1 = NO
• O=C(CNC(=O)c1cccc2ccccc12)Nc1ccccc1Oc1cccc(O)c1 = NO
